Provide the reported protein stability index of each item.
B1: TMEM106C (parent)
chain: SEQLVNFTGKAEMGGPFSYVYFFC

Variants of: B1
assay: protein stability index of a GFP-peptide fusion (GPS, HEK-293T) (PSI 1-6); higher = more stable;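 note: lentivirally expressed fusions sorted by FACS into six bins by GFP to DsRed ratio, PSI derived from sequencing read proportions per bin multiplied by bin number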
reported-conditions: c terminus: a fixed tail appended
Please state the value as a number alone, without comment.

Using the record for S18A , state its measured protein stability index. 2.29

Using the record for F7N , state its measured protein stability index. 2.37

Using the record for K10H , state its measured protein stability index. 2.51

Using the record for K10Q , state its measured protein stability index. 3.07

Using the record for S1G , state its measured protein stability index. 3.79

Using the record for E2A , state its measured protein stability index. 2.44

Using the record for E12W , state its measured protein stability index. 3.46

Using the record for F23Y , state its measured protein stability index. 3.3

Using the record for P16R , state its measured protein stability index. 3.05

Using the record for Q3R , state its measured protein stability index. 2.4

Using the record for V20N , state its measured protein stability index. 2.69

Using the record for M13K , state its measured protein stability index. 2.34

Using the record for Q3Y , state its measured protein stability index. 2.99

Using the record for V5G , state its measured protein stability index. 1.26

Using the record for S1E , state its measured protein stability index. 2.98

Using the record for V5K , state its measured protein stability index. 3.06

Using the record for Y21N , state its measured protein stability index. 2.82

Using the record for E2Q , state its measured protein stability index. 2.65

Using the record for S18E , state its measured protein stability index. 2.23

Using the record for E2F , state its measured protein stability index. 3.3

Using the record for Y19M , state its measured protein stability index. 3.35

Using the record for S1A , state its measured protein stability index. 2.51

Using the record for G15Q , state its measured protein stability index. 2.59

Using the record for A11N , state its measured protein stability index. 2.66

Using the record for M13I , state its measured protein stability index. 3.54

Using the record for M13L , state its measured protein stability index. 2.2

Using the record for G14K , state its measured protein stability index. 2.59

Using the record for C24M , state its measured protein stability index. 2.82

Using the record for S18T , state its measured protein stability index. 2.31

Using the record for V5E , state its measured protein stability index. 1.79

Using the record for F7S , state its measured protein stability index. 2.03

Using the record for F23E , state its measured protein stability index. 2.15

Using the record for F17I , state its measured protein stability index. 2.47

Using the record for Y21E , state its measured protein stability index. 1.42

Using the record for N6L , state its measured protein stability index. 1.38

Using the record for P16F , state its measured protein stability index. 3.14

Using the record for T8K , state its measured protein stability index. 2.4

Using the record for E2T , state its measured protein stability index. 2.64

Using the record for Q3T , state its measured protein stability index. 2.79

Using the record for V5S , state its measured protein stability index. 2.45

Using the record for G9L , state its measured protein stability index. 2.21

Using the record for Q3I , state its measured protein stability index. 2.94

Using the record for Y21T , state its measured protein stability index. 3.31

Using the record for F22W , state its measured protein stability index. 2.21

Using the record for E2H , state its measured protein stability index. 2.8

Using the record for N6S , state its measured protein stability index. 2.52

Using the record for T8W , state its measured protein stability index. 2.44

Using the record for Y21K , state its measured protein stability index. 2.06

Using the record for F17G , state its measured protein stability index. 2.28

Using the record for C24R , state its measured protein stability index. 2.09

Using the record for Q3A , state its measured protein stability index. 1.85

Using the record for G14Q , state its measured protein stability index. 2.52

Using the record for Q3H , state its measured protein stability index. 3.21

Using the record for E12H , state its measured protein stability index. 3.66

Using the record for F7Y , state its measured protein stability index. 3.39

Using the record for N6R , state its measured protein stability index. 2.31

Using the record for G15D , state its measured protein stability index. 2.33

Using the record for C24N , state its measured protein stability index. 1.89

Using the record for E2G , state its measured protein stability index. 2.88

Using the record for T8H , state its measured protein stability index. 3.31

Using the record for Q3W , state its measured protein stability index. 3.02

Using the record for K10D , state its measured protein stability index. 2.33

Using the record for F22C , state its measured protein stability index. 2.58

Using the record for C24S , state its measured protein stability index. 2.23

Using the record for G9E , state its measured protein stability index. 2.46

Using the record for Q3M , state its measured protein stability index. 2.52

Using the record for F7T , state its measured protein stability index. 3.16

Using the record for Q3E , state its measured protein stability index. 2.57

Using the record for L4K , state its measured protein stability index. 3.49

Using the record for E2N , state its measured protein stability index. 3.28

Using the record for V5A , state its measured protein stability index. 2.95

Using the record for F22N , state its measured protein stability index. 1.79

Using the record for S1P , state its measured protein stability index. 2.9

Using the record for F23R , state its measured protein stability index. 4.48

Using the record for V20I , state its measured protein stability index. 2.7

Using the record for Y19K , state its measured protein stability index. 3.22

Using the record for G9K , state its measured protein stability index. 2.89

Using the record for S1Q , state its measured protein stability index. 2.63

Using the record for V5Q , state its measured protein stability index. 2.89

Using the record for C24E , state its measured protein stability index. 2.29

Using the record for G15M , state its measured protein stability index. 3.83

Using the record for E12Y , state its measured protein stability index. 3.17

Using the record for G9T , state its measured protein stability index. 3.27

Using the record for G9A , state its measured protein stability index. 3.2

Using the record for Y19E , state its measured protein stability index. 1.93

Using the record for E2W , state its measured protein stability index. 2.95

Using the record for C24Q , state its measured protein stability index. 1.54

Using the record for G15V , state its measured protein stability index. 2.76

Source: the supplement of paper PMC10567573
